test system: UACC-62; test: NCI tumour cell line growth inhibition, 48 h
Where a name gives a salt, the structure may show the parent alone. Active and inactive are the calls of the source. Cut-off read from the data, not from the text of the source: active = GI50 up to about 1.1 µM and inactive = higher.
Allowed answers: yes (1) (active), no (0) (inactive)

Worked examples follow.
compound | group
CNC(=O)SCC(N)C(=O)O (configuration not stated) | no (0)
Nc1cccc2c1C1=NNC(=O)CC1C2 (configuration not stated) | no (0)
C[N+](C)(C)CC(=O)N/N=C/c1oc(-c2cccc([N+](=O)[O-])c2)c(-c2cccc([N+](=O)[O-])c2)c1[N+](=O)[O-] | no (0)
Cc1ccc(S(=O)(=O)Oc2nc3ccccc3nc2OS(=O)(=O)c2ccc(C)cc2)cc1 | no (0)
CC(=O)Oc1cc2c(cc1OC(C)=O)OCC(c1ccccc1)C2 (configuration not stated) | no (0)
O=c1c2cc(S(=O)(=O)O)ccc2nc(COc2ccc(Oc3ccc(Cl)cc3Cl)cc2)n1-c1ccc(Oc2ccc(Cl)cc2)cc1Cl | no (0)

Record lookup: outcome of this test for c1ccc(C2(c3cc4ccccc4[nH]3)OCCO2)cc1 ?
no (0)

Record lookup: outcome of this test for CC1CC(c2cccc3c2OCO3)=Nc2ccccc2S1 (configuration not stated) ?
no (0)

Record lookup: outcome of this test for O=C(Cn1c2c(c3ccccc31)CCCC2)NC1CCCCC1 ?
no (0)

Record lookup: outcome of this test for O=S(O)CCCSSc1ccccc1 ?
no (0)

Record lookup: outcome of this test for CSc1nc(NC2OC(CO)C(O)C(O)C2O)c(N)c(=O)[nH]1 (configuration not stated) ?
no (0)

Record lookup: outcome of this test for Cc1ccc2[nH]c3[nH]c(=O)[nH]c(=O)c3c2c1 ?
no (0)

Record lookup: outcome of this test for C=C(CN(C)C)C(=O)c1ccccc1 ?
no (0)

Record lookup: outcome of this test for Cc1ccc(-c2cc(C(F)(F)F)nn2-c2ccc(S(N)(=O)=O)cc2)cc1 ?
no (0)

Record lookup: outcome of this test for BrCCC[P+](c1ccccc1)(c1ccccc1)c1ccccc1 ?
no (0)

Record lookup: outcome of this test for O=C1CCCC(=O)N1n1c(Cc2ccc(Cl)cc2)n[nH]c1=O ?
no (0)

Record lookup: outcome of this test for COc1ccc2nccc(C3OC(=O)N4CCC(=O)CC34)c2c1 (configuration not stated) ?
no (0)

Record lookup: outcome of this test for COc1c2c(cc3nc4ccccc4nc13)CC[C@H](NC(C)=O)c1cc(=O)c(SC)ccc1-2 ?
yes (1)

Record lookup: outcome of this test for CC1(C)CC[C@]2(C(=O)O)CC[C@]3(C)C(=CC[C@@H]4[C@@]5(C)C[C@H](O)[C@H](O)[C@@](C)(CO)C5=CC[C@]43C)[C@@H]2C1 ?
no (0)

Record lookup: outcome of this test for Cc1cn(C2CC(O)C(CO)O2)c(=O)n2nnnc12 (configuration not stated) ?
no (0)

Record lookup: outcome of this test for O=C(NC(=O)c1cn(CCN(CCO)C(=O)NCCCCCCNC(=O)N(CCO)CCn2cc(C(=O)NC(=O)OCc3ccccc3)c(=O)[nH]c2=O)c(=O)[nH]c1=O)OCc1ccccc1 ?
no (0)

Record lookup: outcome of this test for CC(C)[C@@H](COC(C)(C)C)/N=C/N1CCc2c([nH]c3ccccc23)C1 ?
no (0)

Record lookup: outcome of this test for N#CC(C#N)C(c1ccccc1)c1ccccc1 ?
no (0)

Record lookup: outcome of this test for O=C1C=CC(=O)c2c1c1c(c3c2C2c4ccccc4C3c3ccccc32)C2c3ccccc3C1c1ccccc12 ?
no (0)

Record lookup: outcome of this test for CCOC(=O)C(=O)Nc1ccccc1C(F)(F)F ?
no (0)

Record lookup: outcome of this test for C=CCOCn1ccc(N)nc1=O ?
no (0)

Record lookup: outcome of this test for O=C1c2cccc3cc4ccccc4c(c23)C(=O)N1CCNCCNCCNCCN1C(=O)c2cccc3cc4ccccc4c(c23)C1=O ?
yes (1)

Record lookup: outcome of this test for CC[C@@H]1C(=O)OC[C@@H]1Cc1cncn1C [PILOCARPINE HYDROCHLORIDE] ?
no (0)

Record lookup: outcome of this test for COc1cccc(-c2nnc3c(-c4ccccc4)nc4ccccc4n23)c1 ?
no (0)
